These data points were gathered from PubChem BioAssay AID1159580.

Procedure details: chemical genetic growth profiling, strain panel (AID 1159580);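 also: tested at 20 µM; growth read once vehicle control cultures reached saturation at 30 °C; 1 = growth at the plate median or of vehicle wells; lower values mean less growth of the strain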
Measurement conditions: S. cerevisiae deletion strains, growth OD, locus YAL026C, strain drs2
Hit rate of the full screen: of about 5,500 compounds, about 2,000 (36%) were called active. Roughly 18% stayed inconclusive and do not appear here. Rule as the data show it: active = normalized growth mostly below about 0.91 (no sharp cut-off); inconclusive = no clear call, values can overlap the other calls; inactive = mostly above about 0.92. The list shows a part of the results.
Respond only with the outcome that fits, drawn from active, inactive

Reference set, count: 5
* O=C(O)CCC(=O)OC[C@@H](NC(=O)C(Cl)Cl)[C@H](O)c1ccc([N+](=O)[O-])cc1 | inactive
* CC(=CC1CCC(C)C2CCC(C)=C12)C(=O)O (stereo not given) | active
* CC(C)C1CCC(C(=O)N[C@@H](Cc2ccccc2)C(=O)O)CC1 (stereo not given in full) | inactive
* O=C(N[C@@H](CO)[C@H](O)c1ccc([N+](=O)[O-])cc1)C(Cl)Cl | inactive
* CC(=CC1CCC(C)C2C1=C(C)CC2O)C(=O)O (stereo not given) | inactive

Query string: Short answer needed: outcome of this test for O=C1C=C(O)c2ccccc2C1=O ?
Result string: inactive

Query string: Short answer needed: outcome of this test for CNC(C)(C)Cc1ccccc1 ?
Result string: inactive

Query string: Short answer needed: outcome of this test for COCC1=C(C(=O)OC(C)OC(=O)OC(C)C)N2C(=O)[C@@H](NC(=O)/C(=N\OC)c3csc(N)n3)[C@H]2SC1 (stereo not given in full) ?
Result string: inactive

Query string: Short answer needed: outcome of this test for O=C1c2ccccc2C(=O)c2ccccc21 ?
Result string: inactive

Query string: Short answer needed: outcome of this test for O=c1c(O)c(-c2ccccc2)oc2cccc(O)c12 ?
Result string: active

====

Procedure details: chemical genetic growth profiling, strain panel (AID 1159580)
Measurement conditions: S. cerevisiae deletion strains, growth OD, locus YGR078C, strain PAC10, hits give low values
Out of some 5,500 compounds screened, about 2,000 (36%) were called active. About 18% were inconclusive and are not listed. Some of the results follow.
Reported metric: normalized growth
Answers are plain numbers.

Answered examples (3):
* CC(C)(C)S(=O)(=O)c1cnc(N)nc1N | 1.01
* O=C1C=C(O)c2ccccc2C1=O | 0.963
* Nc1nc(Sc2ccc(C(F)(F)F)cc2[N+](=O)[O-])n[nH]1 | 1.01

Would you mind giving normalized growth for every compound in the list below?
1. Cc1nc(C(F)(F)F)nc(Sc2n[nH]c(-c3cc(Cl)cc(Cl)c3)n2)c1C
2. COc1cc(Cc2cnc(N)nc2N)cc(OC)c1OC
3. Nc1ccccc1C(=O)NCCc1ccc(Cl)cc1
4. Cc1c(C)c(C)c(S(=O)(=O)Nc2ccccc2N)c(C)c1C
5. O=C(/C=C/c1ccccc1)c1c(O)cc(O)cc1O

Result string:
1: 1.01; 2: 1.01; 3: 0.97; 4: 1.01; 5: 1.03

Would you mind giving normalized growth for every compound in the list below?
1. CCOC(=O)c1ccc(Oc2ncc(C(F)(F)F)cc2Cl)cc1
2. Nc1ccc2c3c(cccc13)C(=O)NC2=O
3. O=C(Cc1ccc(Cl)c(Cl)c1)N1CCCCC1CN1CCCC1 (stereo unspecified)

Result string:
[0.993, 0.981, 1.01]

====

Procedure details: chemical genetic growth profiling, strain panel (AID 1159580)
Measurement conditions: S. cerevisiae deletion strains, growth OD, locus YOL012C, strain htz1
The whole screen tested about 5,500 compounds, of which about 2,000 (36%) were called active. Inconclusive results (about 18%) are left out. The list shows a part of the results.
Task for the reader: assign each of the following compounds its reported normalized growth.

* COC(=O)CC1C(C)(C)C(=O)C2CC3(O)C4=CC(=O)OC(c5ccoc5)C4(C)CCC3C1(C)C2=O (configuration not stated) | 1.11 (inactive)
* COC1=CC23CCCN2CCc2cc4c(cc2C3C1O)OCO4 (configuration not stated) | 0.879 (inactive)
* ClC1C(Cl)C(Cl)C(Cl)C(Cl)C1Cl (configuration not stated) | 0.8 (inactive)
* CC(=O)OC[C@@]1(O)C[C@@]23CCC4c5ccoc5CC[C@]4(C)C2CC[C@@H]1C3 (some centres not stated) | 1.41 (inactive)

Would you mind giving normalized growth for every compound in the list below?
1. O=C(O)c1cc(=O)c2ccccc2[nH]1
2. O=c1c(O)c(-c2ccccc2)oc2ccc3occc3c12
3. C=C[C@H]1CN2CC[C@H]1C[C@H]2[C@H](O)c1ccnc2ccccc12
4. Cc1cc(O)c2c(c1)C(=O)c1cc(O)cc(O)c1C2=O
5. C[N+]12CCC(CC1)C(OC(=O)C(O)(c1ccccc1)c1ccccc1)C2 (configuration not stated)
6. COc1cc2c(cc1OC)C(C)NCC2 (configuration not stated)
7. COC(=O)C(O)[C@H]1C(C)(C)[C@@H](OC(C)=O)[C@@H]2CC3=C4CC(=O)O[C@@H](c5ccoc5)[C@]4(C)CCC3[C@@]1(C)C2=O (some centres not stated)
8. O=C(O)c1cccnc1C(=O)O

Result string:
1.51 (inactive)
1.09 (inactive)
0.823 (inactive)
0.486 (inactive)
0.92 (inactive)
0.939 (inactive)
0.744 (inactive)
1.66 (inactive)

====

Procedure details: chemical genetic growth profiling, strain panel (AID 1159580);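 also: tested at 20 µM; growth read once vehicle control cultures reached saturation at 30 °C; 1 = growth at the plate median or of vehicle wells; lower values mean less growth of the strain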
Measurement conditions: S. cerevisiae deletion strains, growth OD, locus YEL061C, strain CIN8 (second series), hits give low values
Out of some 5,500 compounds screened, about 2,000 (36%) were called active. Not shown: some 18% with an inconclusive outcome. This is one part of the list.
Task for the reader: assign each of the following compounds its reported normalized growth.
One number for each entry.

Answered examples (3):
* COc1ccc(NS(=O)(=O)c2ccc(N)cc2)nn1 | 1.01
* O=C(N[C@@H](CO)[C@H](O)c1ccc([N+](=O)[O-])cc1)C(Cl)Cl | 1.02
* CC[C@H]1OC(=O)[C@H](C)[C@@H](O[C@H]2C[C@@](C)(OC)[C@@H](O)[C@H](C)O2)[C@H](C)[C@@H](O[C@@H]2O[C@H](C)C[C@H](N(C)C)[C@H]2O)[C@](C)(O)C[C@@H](C)/C(=N/OCOCCOC)[C@H](C)[C@@H](O)[C@]1(C)O | 1

Would you mind giving normalized growth for every compound in the list below?
1. O=C(Nc1ccc([N+](=O)[O-])cc1Cl)c1cc(Cl)ccc1O
2. CCC1(C2=NCCN2)Cc2ccccc2O1 (stereo not given)

Result string:
1: 1; 2: 1.01

====

Procedure details: chemical genetic growth profiling, strain panel (AID 1159580);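 also: tested at 20 µM; growth read once vehicle control cultures reached saturation at 30 °C; 1 = growth at the plate median or of vehicle wells; lower values mean less growth of the strain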
Measurement conditions: S. cerevisiae strains, growth OD, strain wild type
Among all 5,500 compounds or so, about 2,000 (36%) were called active. Roughly 18% stayed inconclusive and do not appear here. No stated cut-off is given here; in the data, active means normalized growth mostly below about 0.91 (no sharp cut-off); inconclusive means no clear call, values can overlap the other calls; inactive means mostly above about 0.92. This is one part of the list.
Respond only with the outcome that fits, drawn from TRUE (active), FALSE (inactive)

• O=c1c(O)c(-c2ccccc2)oc2cc(O)ccc12 = TRUE
• O=C(CCc1ccc(O)cc1)c1c(O)cc(O)cc1O = FALSE
• Cc1noc(C)c1C(=O)N1CCOCC1 = FALSE

Query string: Short answer needed: outcome of this test for COc1ccc(CC(=O)c2ccc(O)cc2O)cc1 ?
Result string: FALSE

Query string: Short answer needed: outcome of this test for O=[N+]([O-])c1cc(Cl)c(Sc2ccccc2)cc1Sc1ccccc1 ?
Result string: FALSE

====

Procedure details: chemical genetic growth profiling, strain panel (AID 1159580);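 also: tested at 20 µM; growth read once vehicle control cultures reached saturation at 30 °C; 1 = growth at the plate median or of vehicle wells; lower values mean less growth of the strain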
Measurement conditions: S. cerevisiae deletion strains, growth OD, locus YNL128W, strain TEP1, hits give low values
Among all 5,500 compounds or so, about 2,000 (36%) were called active. About 18% were inconclusive and are not listed. This is one part of the list.
Task for the reader: assign each of the following molecules its reported normalized growth.
Answers are plain numbers.

Answered examples (3):
* Cc1ccc2c(c1)C(N1CCN(C)CC1)=Nc1cccnc1N2 | 1.09
* O=C1C(=O)c2ccccc2C(O)=C1C1CCC(c2ccc(Cl)cc2)CC1 (stereo not given) | 1.01
* O=C(CNc1cccc(Cl)c1)c1ccc(Cl)cc1 | 0.973

Would you mind giving normalized growth for every molecule in the list below?
1. COc1cc2c(cc1OC)C(C)NCC2 (stereo not given)
2. C=C[C@H]1CN2CC[C@H]1C[C@H]2[C@H](O)c1ccnc2ccccc12
3. Cn1c(=O)[nH]c2ncn(C)c2c1=O
4. CC(C)=CCC/C(C)=C/CO
5. COC[C@H]1OC(=O)c2coc3c2[C@@]1(C)C1=C(C3=O)C2CCC(=O)[C@@]2(C)C[C@H]1OC(C)=O (stereo not given in full)
6. CC(=O)Nc1c(I)cc(I)c(C(=O)O)c1I

Result string:
1. 0.998
2. 1.03
3. 1.02
4. 1.01
5. 0.143
6. 1.01

Would you mind giving normalized growth for every molecule in the list below?
1. Cn1c(=O)c2c(ncn2C)n(C)c1=O
2. CC(C)NP(=O)(NC(C)C)OP(=O)(NC(C)C)NC(C)C

Result string:
1: 0.997; 2: 0.99

Would you mind giving normalized growth for every molecule in the list below?
1. COc1ccccc1C1CCN(c2ncnc3scc(-c4ccccc4)c23)CC1
2. Cn1nccc1NS(=O)(=O)c1ccc(C(C)(C)C)cc1
3. COc1ccc2c(c1)C13CCCCC1C(C2)N(C)CC3 (stereo not given)
4. NC(N)=NCc1cccc(I)c1
5. Cc1c(C)c(C)c(S(=O)(=O)Nc2ccccc2N)c(C)c1C
6. Cn1c(=O)c2c(ncn2CCO)n(C)c1=O
7. Cc1cccc(NC(=O)c2ccccc2)c1

Result string:
[1.02, 0.968, 1.01, 1.02, 0.978, 1, 0.992]

Would you mind giving normalized growth for every molecule in the list below?
1. COc1ccc(NS(=O)(=O)c2ccc(N)cc2)nn1
2. NC1CONC1=O (stereo not given)

Result string:
1: 1.02; 2: 1.03
